The reported measurements were obtained from the Human Domainome abundance scans (Beltran et al. 2025).

B1: Transcription factor SOX-4, residues 60 to 127; numbered along this chain, Q06945 (parent)
chain: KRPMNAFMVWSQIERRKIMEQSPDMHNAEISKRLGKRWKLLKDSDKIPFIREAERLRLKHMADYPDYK

Variants of: B1
assayName: abundance fitness (aPCA) (normalised: wild type 0, dead -1); higher = more abundant; growth selection in yeast, the domain comes from the species named
appliedConditions: Homo sapiens
I'd appreciate it if you could supply abundance fitness values for the items below.
Give bare numbers.

{"variantSpec": "D63M", "obsValue": 0.055}
{"variantSpec": "D45E", "obsValue": -0.074}
{"variantSpec": "D24F", "obsValue": -0.134}
{"variantSpec": "H60F", "obsValue": -0.193}
{"variantSpec": "D43W", "obsValue": -0.106}

List reported abundance fitness for each of these variants:
1. R55Y
2. P48K
3. P48E
4. M25F
5. F49Q
6. R33S

-0.474
-0.482
-0.189
-0.614
-0.972
-0.1
